# Tested on: NOMO1
# Experiment Summary: cell viability relative to DMSO control; higher = less cytotoxic
# Assay Conditions: HPLM + 10% dialyzed FBS; 48 h; 0.0211 µM
Observed Property: cell viability (%)
Give a bare numeral; the unit % is implied.

I am curious: what cell viability value has been reported for N\C1=N\C2=C(N=C[N]2COCCO)C(=O)N1 ?
112

Now try O=C1\C=C/C=C2/[C@H]3CNC[C@H](C3)CN12 .
111

Now try CN(C)C1=CC(=CC=C1)C\2=C\3C(=O)N(NC3=C/C(=O)N2C)C4=CC=CC=C4Cl .
116

Now try c1ccc2c(Cc3c[nH]c4ccccc34)c[nH]c2c1 .
93.6

Now try CN1CCN(c2c(F)cc3c(=O)c(C(=O)O)cn(CCF)c3c2F)CC1 .
119

Now try CCOC(=O)N1c2ccc(C(F)(F)F)cc2[C@@H](N(Cc2cc(C(F)(F)F)cc(C(F)(F)F)c2)C(=O)OC)C[C@H]1CC .
118

Now try CC(C)(S)[C@@H](N)C(=O)O .
136

Now try N#C/C(=C\c1ccc(O)c(O)c1)C(=O)NCc1ccccc1 .
110

----------
# System: P12-Ichikawa
# Experiment Summary: cell viability relative to DMSO control; higher = less cytotoxic
# Assay Conditions: RPMI 5 mM glucose + 10% dialyzed FBS; 48 h; 46.1 µM
Observed Property: cell viability
Answer shape: numeric part, then the unit.

Can you look up cell viability on P12-Ichikawa for CC(C)N(C[C@H]1O[C@@H](n2cnc3c(N)ncnc32)[C@H](O)[C@@H]1O)[C@H]1C[C@@H](CCc2nc3cc(C(C)(C)C)ccc3[nH]2)C1 ?
1.74%

Now try O=C(CCc1ccc(O)cc1)c1c(O)cc(O)cc1O .
99.4%

Now try CCOC(=O)C(C#N)C\1C2=CC(=CC=C2O\C(=C1C(=O)OCC)N)Br (stereo unspecified) .
80%

Now try CC(C)(S)[C@@H](N)C(=O)O .
95.8%

Now try COc1cccc2c1C(=O)c1c(O)c3c(c(O)c1C2=O)C[C@@](O)(C(=O)CO)C[C@@H]3O[C@H]1C[C@H](N)[C@H](O[C@H]2CCCCO2)[C@H](C)O1 .
84.7%

Now try [O-]C(=O)C/1=N/C(=O)NC(=O)N1 .
76.5%

Now try COc1ccc(C(CN(C)C)C2(O)CCCCC2)cc1 (stereo unspecified) .
97.1%

Now try CCC(C)N1\N=C/N(C1=O)C2=CC=C(C=C2)N3CCN(CC3)C4=CC=C(OC[C@H]5CO[C@@](C[N]6C=NC=N6)(O5)C7=CC=C(Cl)C=C7Cl)C=C4 (stereo partly specified) .
95.7%

Now try O=C(CCCCCCC(=O)Nc1cccnc1)NO .
3.83%

Now try CCN1\C=C(\C(O)=O)C(=O)C2=C1N=C(N3CCNCC3)C(=C2)F .
95.1%

Now try N[S+](=O)([O-])c1cc2c(cc1Cl)NC(C(Cl)Cl)N[S+]2(=O)[O-] (stereo unspecified) .
115%

Now try CC(C)=CCC/C(C)=C/CC/C(C)=C/CSc1ccccc1C(=O)O .
39.8%

Now try NC[C@@H]1O[C@H](O[C@H]2[C@@H](O)[C@H](O[C@@H]3[C@@H](O)[C@H](N)C[C@H](N)[C@H]3O[C@H]3O[C@H](CN)[C@@H](O)[C@H](O)[C@H]3N)O[C@@H]2CO)[C@H](N)[C@@H](O)[C@@H]1O.O=S(=O)(O)O.O=S(=O)(O)O.O=S(=O)(O)O .
93.4%

Now try NC(=O)Nc1sc(-c2ccc(F)cc2)cc1C(N)=O .
27.3%

Now try O=S(=O)([O-])CCS.[Na+] .
20.1%

Now try Cc1nn(C)c(COc2ccc(N3CCN([S+](=O)([O-])N(C)C)CC3)cc2)c1-c1cccc2c(CCCOc3cccc4ccccc34)c(C(=O)O)n(CCN3CCOCC3)c12 .
36.7%

Now try CCN1C[C@H](C)[N]2C(=C(O)C3=C2\C(=N/N(CC4=CC=C(F)C(=C4)Cl)C3=O)C(=O)NC)C1=O .
92.5%

Now try COc1cc([C@@H]2c3cc4c(cc3[C@H](O)[C@H]3COC(=O)[C@@H]23)OCO4)cc(OC)c1OC .
5.7%

Now try N#Cc1ccc(Oc2ccc3c(c2)COB3O)cc1 .
38.6%

Now try CC[N+](CC)(CC)CCOc1cccc(OCC[N+](CC)(CC)CC)c1OCC[N+](CC)(CC)CC .
100%

Now try Cc1ccc([N+](=O)[O-])cc1[S+](=O)([O-])N(C)/N=C/c1cnc2ccc(Br)cn12 .
5.41%

Now try O=C(NCCCCN1CCOCC1)c1cc2ccccc2o1 .
108%

Now try OC1=CC=C(C=C1)\C2=C\OC3=C(C(=CC(=C3)O)O)C2=O .
69.5%

Now try N[C@H]2CN(CC12CC1)c3c(F)cc4c(c3Cl)[N@@](C=C(C4=O)C(=O)O)C5C[C@H]5F (stereo partly specified) .
81.3%

Now try CC1(CN2CCC(n3c(=O)[nH]c4ccccc43)CC2)OCc2ccccc2-n2cccc21 (stereo unspecified) .
98.5%

Now try OC1=CC2=C(C=C1)C(=O)\C(=C(O2)\C3=CC(=C(O)C=C3)O)O .
32.5%
